Below, each entry is listed with its recorded collision cross section (N2).
settings: [M+H]+; instrument: TW; calibrated with polyalanine and drug standards
Hi, when you answer, please include the unit after the number. Thanks!

I'd like to know its collision cross section (N2). The compound in question is "C=C(C)[C@H]1CN[C@H](C(=O)O)[C@H]1CC(=O)O"
144.2 Å²

Query: collision cross section (N2); subject: "Nc1c2ccccc2nc2ccccc12"
136.8 Å²

Returns the measured collision cross section (N2) for the input compound. Input: "CC[C@H]1OC(=O)[C@H](C)[C@@H](O[C@H]2C[C@@](C)(OC)[C@@H](O)[C@H](C)O2)[C@H](C)[C@@H](O[C@@H]2O[C@H](C)C[C@H](N(C)C)[C@H]2O)[C@](C)(O)C[C@@H](C)CN(C)[C@H](C)[C@@H](O)[C@]1(C)O"
263.5 Å²

---

details: [M+Na]+; instrument: DT; single field, calibrated with ESI Low Concentration Tuning Mix (Agilent)
value_kind: collision cross section (N2) (Å²)
Give the number; Å² is assumed, so skip it.

Example results:
INSERT INTO measurements (molecule, measure_unit, data_value) VALUES
  ('OC[C@H]1OC(O)[C@@H](O)[C@@H](O)[C@@H]1O (stereo not given in full) [MANNOSE]', 'Å²', 141.5),
  ('CCCCCCCCCCCCCCC[C@@H](O)[C@@H](N)CO [SPHINGANINE]', 'Å²', 191.1),
  ('O=C(O)CP(=O)(O)O [PHOSPHONOACETATE]', 'Å²', 134.5),
  ('Nc1ncnc2c1ncn2[C@H]1C[C@H](O)[C@@H](CO)O1 [DEOXYADENOSINE]', 'Å²', 161.6),
  ('O=C(O)c1cc(=O)c2cccc(O)c2[nH]1 [XANTHURENATE]', 'Å²', 147.7);

Entry CC(C)(COP(=O)(O)OP(=O)(O)OC[C@H]1O[C@@H](n2cnc3c(N)ncnc32)[C@H](O)[C@@H]1OP(=O)(O)O)[C@@H](O)C(=O)NCCC(=O)NCCSC(=O)C[C@@](C)(O)CC(=O)O [3-HYDROXY-3-METHYLGLUTARYL-COA] : reported collision cross section (N2) = ?
266.2

What value of collision cross section (N2) has been reported for the following molecule? CC(O)(CC(=O)O)C(=O)O (stereo not given) [CITRAMALATE]
133.2

Requested field: collision cross section (N2). Item: O=c1nc[nH]c2nc[nH]c12 [HYPOXANTHINE]
134.4

Which value of collision cross section (N2) has been reported for Cn1c(=O)[nH]c2ncn(C)c2c1=O [PARAXANTHINE] in the records?
149.5

# lookup: collision cross section (N2) of OC[C@@H](O)[C@@H](O)CO [ERYTHRITOL]
129.9

Given the molecule Nc1nc(=O)c2nc(CNc3ccc(C(=O)N[C@@H](CCC(=O)O)C(=O)O)cc3)cnc2[nH]1 [FOLATE] , what is its reported collision cross section (N2)?
205.7

I'd like to know its collision cross section (N2). The molecule in question is O=c1[nH]c(=O)c2nccnc2[nH]1 [2,4-DIHYDROXYPTERIDINE]
143.8

---

conditions: [M+H]+; instrument: TW; calibrated with phosphatidylcholines (ESI+) and phosphatidylethanolamines (ESI-)
collision cross section (N2) for assorted molecules
Unit Å² implied. Number only.

INSERT INTO assay_data (molecule, data_value) VALUES
  ('CCCCCCCCCCCCC=CC[C@@H](O)[C@H](CO[C@@H]1O[C@H](CO)[C@@H](O)C(O)C1O)NC(=O)CC=CCCCCCCCCCCCCCCCCCC (some centres not stated)', 293.1),
  ('CCCCCCCCCCCCC=CC[C@@H](O)[C@H](CO)NC(=O)CC=CCCCCCCCCCCCCCCCCCCCC', 276.8),
  ('CC/C=C\C/C=C\C/C=C\C/C=C\C/C=C\CCCC(=O)O[C@H](CO/C=C\CCCCCCCCCCCCCCCCCC)COP(=O)(O)OCCN', 284.7),
  ('CCCCCCCCCCCCCCCC(=O)O[C@H](CO)COP(=O)(O)OCCN', 213.4),
  ('CCCCCCCCCCCCCCCCCCC(=O)O[C@H](COC(=O)CCCCCCCCCCCCCCCC)COP(=O)([O-])OCC[N+](C)(C)C', 292.5),
  ('CCCCC/C=C\C/C=C\C/C=C\C/C=C\C/C=C\CCC(=O)O[C@H](COC(=O)CCCCCCCCCCCCC)COP(=O)([O-])OCC[N+](C)(C)C', 284.1),
  ('CCCCCCCCCCCCCCCC/C=C\OC[C@@H](O)COP(=O)([O-])OCC[NH3+]', 222.5),
  ('CCCCC/C=C\C/C=C\CCCCCCCC(=O)OC[C@H](COP(=O)([O-])OCC[N+](C)(C)C)OC(=O)CCCCCCCCC/C=C\CCCCCC', 285.5),
  ('CC/C=C\C/C=C\C/C=C\C/C=C\CCCCC(=O)OC[C@H](COP(=O)(O)OCCN)OC(=O)CCCCC/C=C\C/C=C\C/C=C\C/C=C\CCCCC', 280.7),
  ('CCCCCC/C=C\CCCCCCCCCC(=O)O[C@H](COC(=O)CCCCCCC/C=C\CCCCCCCC)COP(=O)([O-])OCC[N+](C)(C)C', 288.5);

# get_value(readout='collision cross section (N2)', item= CCCCCCCCCCCCC=CC[C@@H](O)[C@H](CO[C@@H]1O[C@H](CO)[C@@H](O)C(O)C1O)NC(=O)CCCCCCCCCCCCCCCCCCCCCCC (some centres not stated) )
299.7

// query collision cross section (N2) value for entry "CCCCCCCCCCCCC=CC[C@@H](O)[C@H](COP(=O)([O-])OCC[N+](C)(C)C)NC(=O)CCCCCCCCCCCCCCCCCCCCCCC"
302.2

---

conditions: [M+H]+; instrument: DT; stepped-field
value_kind: collision cross section (N2) (Å²)
Your answer is read as Å², so omit the unit and give the number.

// solved cases for collision cross section (N2) follow
INSERT INTO assay_data (molecule, value_kind, data_value) VALUES
  ('CCCCCCCCCCCCC(=O)OCC(O)COP(=O)([O-])OCC[N+](C)(C)C (centres undefined)', 'collision cross section (N2)', 220.71),
  ('O=C(O)C1(O)C[C@@H](O)C(O)[C@H](O)C1 (some centres undefined)', 'collision cross section (N2)', 146.35),
  ('Nc1ncnc2c1ncn2[C@@H]1O[C@H](COP(=O)(O)OP(=O)(O)O)[C@@H](O)[C@H]1O [Adenosine 5'' Diphosphate]', 'collision cross section (N2)', 188.61),
  ('O=c1[nH]c(=O)c2[nH]cnc2[nH]1', 'collision cross section (N2)', 138.11),
  ('O=c1nc[nH]c2c1ncn2[C@@H]1O[C@H](CO)[C@@H](O)[C@H]1O', 'collision cross section (N2)', 159.25);

Dear colleague, I am looking for the recorded collision cross section (N2) of the following molecule: "CCOCN(C(=O)CCl)c1c(C)cccc1CC"
160.09

Find the recorded collision cross section (N2) belonging to "O=c1[nH]c(=O)c2[nH]c(=O)[nH]c2[nH]1" and report it.
131

Fill blank: measured collision cross section (N2) of the molecule "NC(=O)CC[C@H](N)C(=O)O" is ____.
133.45

Need collision cross section (N2), item "Cn1cnc2c1c(=O)[nH]c(=O)n2C"
134.37

---

details: [M+H]+; instrument: DT; single field, calibrated with ESI Low Concentration Tuning Mix (Agilent)
value_kind: collision cross section (N2) (Å²)
Supply the numeric figure in Å², leaving out any unit text.

Answered cases to consult:
INSERT INTO assay_data (molecule, data_value) VALUES
  ('O=c1ccn([C@@H]2O[C@H](COP(=O)(O)OP(=O)(O)OP(=O)(O)O)[C@@H](O)[C@H]2O)c(=O)[nH]1 [URIDINE TRIPHOSPHATE]', 187),
  ('Nc1ccn([C@@H]2O[C@H](CO)[C@@H](O)[C@H]2O)c(=O)n1 [CYTIDINE]', 151),
  ('O=C(O)[C@@H]1C[C@@H](O)CN1 [TRANS-4-HYDROXY-L-PROLINE]', 127.9),
  ('COc1cc(CCN)ccc1O [3-METHOXYTYRAMINE]', 146.7),
  ('O=c1[nH]c(=O)c2[nH]c(=O)[nH]c2[nH]1 [URATE]', 130.7),
  ('O=C(O)[C@@H]1CCCN1 [PROLINE]', 125.1);

Looking for the measured collision cross section (N2) of N[C@@H](Cc1cc(I)c(Oc2ccc(O)c(I)c2)c(I)c1)C(=O)O [LIOTHYRONINE] , can you help?
209.1

Consider the molecule O=C(O)[C@H]1C[C@@H](O)CN1 [CIS-4-HYDROXY-D-PROLINE] and give its measured collision cross section (N2).
128.3

Looking for the measured collision cross section (N2) of Nc1nc(=O)c2ncn([C@@H]3O[C@H](COP(=O)(O)OP(=O)(O)O)[C@@H](O)[C@H]3O)c2[nH]1 [GUANOSINE DIPHOSPHATE] , can you help?
192

Name the recorded collision cross section (N2) for Nc1nc(=O)c2ncn([C@@H]3O[C@H](CO)[C@@H](O)[C@H]3O)c2[nH]1 [GUANOSINE] .
163.4

Returns the measured collision cross section (N2) for the input molecule. Input: N[C@@H](Cc1ccc(O)c([N+](=O)[O-])c1)C(=O)O [3-NITRO-L-TYROSINE]
158.2

# lookup: collision cross section (N2) of Nc1c(O)cccc1C(=O)O [3-HYDROXYANTHRANILATE]
131.2

Given the molecule C[N+](C)(C)C[C@@H](CC(=O)[O-])OC(=O)CCCC(=O)O [GLUTARYLCARNITINE] , what is its reported collision cross section (N2)?
161.1

Endpoint output: collision cross section (N2) of O=C(O)c1cc(=O)c2cccc(O)c2[nH]1 [XANTHURENATE] . Value?
140.4

Reference source: the C3SDB collision cross section collection
